Reference source for all entries: the supplement of paper PMC8671470

test system: Mono-Mac-6; assay: cell viability (% survival relative to DMSO control, bortezomib = 0%); higher = less cytotoxic; conditions: 10000 nM; 72 h

Given smiles: C[C@H](NC(=O)c1sccc1OCc1ccc(Cl)cc1)c1ccccc1
cell viability [%]: 88.8

Given smiles: CC1(C)[C@@H](O[C@H]2O[C@H](C(=O)O)[C@@H](O)[C@H](O)[C@H]2O[C@@H]2O[C@H](C(=O)O)[C@@H](O)[C@H](O)[C@H]2O)CC[C@]2(C)[C@H]3C(=O)C=C4[C@@H]5C[C@@](C)(C(=O)O)CC[C@]5(C)CC[C@@]4(C)[C@]3(C)CC[C@@H]12
cell viability [%]: 89

Given smiles: C[C@](N)(Cc1ccc(O)cc1)C(=O)O
cell viability [%]: 104

Given smiles: O=C(O)C(=O)CBr
cell viability [%]: 94.3

====

tested on: HL-60; assay: cell viability (% survival relative to DMSO control); higher = less cytotoxic; settings: 10 µM; 72 h; co-treatment: DMSO vehicle
A collection of compounds and their measured cell viability
Property name: cell viability (%)

Given smiles: CC1(C)[C@@H](O[C@H]2O[C@H](C(=O)O)[C@@H](O)[C@H](O)[C@H]2O[C@@H]2O[C@H](C(=O)O)[C@@H](O)[C@H](O)[C@H]2O)CC[C@]2(C)[C@H]3C(=O)C=C4[C@@H]5C[C@@](C)(C(=O)O)CC[C@]5(C)CC[C@@]4(C)[C@]3(C)CC[C@@H]12
Measured on: HL-60
Result: 101
--
Given smiles: CCCCCCCCCCC[C@@H](C[C@@H]1OC(=O)[C@H]1CCCCCC)OC(=O)[C@H](CC(C)C)NC=O
Measured on: HL-60
Result: 99.8
--
Given smiles: O=C(O)C(=O)CBr
Measured on: HL-60
Result: 98
--
Given smiles: O=c1oc2c(O)c(O)cc3c(=O)oc4c(O)c(O)cc1c4c23
Measured on: HL-60
Result: 100
--
Given smiles: C=C(C=NNC(=N)N)NNC(=N)N
Measured on: HL-60
Result: 69.6
--
Given smiles: Nc1ccccc1C(=O)C[C@H](N)C(=O)O
Measured on: HL-60
Result: 107

====

tested on: MOLM-13; assay: cell viability (% survival relative to DMSO control, bortezomib = 0%); higher = less cytotoxic; details: 10000 nM; 72 h
Property name: cell viability (%)

Compound: O=C(C1CC1)N1CC[C@@H](C=C2NNC(=O)N2c2ccc(-c3ccc4occc4c3)cc2)C1
Property name: cell viability
Result: 44.7
//
Compound: COc1ccc(C(=O)Nc2c(Cl)cncc2Cl)cc1OC1CCCC1
Property name: cell viability
Result: 88.1
//
Compound: O=C(O)CCCCC(CCSCc1ccccc1)SCc1ccccc1 (stereo unspecified)
Property name: cell viability
Result: 94.5
//
Compound: N/C(=N\CCCC(N)C(=O)O)N[N+](=O)[O-] (stereo unspecified)
Property name: cell viability
Result: 88.4
//
Compound: COc1ccc(S(=O)(=O)N2CCN(S(=O)(=O)c3ccc4c(c3)OCCO4)CC2)cc1
Property name: cell viability
Result: 97.8
//
Compound: O=c1oc2c(O)c(O)cc3c(=O)oc4c(O)c(O)cc1c4c23
Property name: cell viability
Result: 110
//
Compound: O=C(O)C1=CC(=C(c2ccc(O)c(C(=O)O)c2)c2ccc(O)c(C(=O)O)c2)C=CC1=O
Property name: cell viability
Result: 30.9
//
Compound: Cc1c(-c2ccc(-c3ccccc3F)cc2)nc2ccc(F)cc2c1C(=O)O
Property name: cell viability
Result: 9.24
//
Compound: Cc1cn([C@H]2C[C@H](O)[C@@H](COP(=O)(O)OP(=O)(O)O)O2)c(=O)[nH]c1=O [Thymidine diphosphate]
Property name: cell viability
Result: 103
//
Compound: O=C(O)C(=O)CBr
Property name: cell viability
Result: 122
//
Compound: CC1(C)[C@@H](O[C@H]2O[C@H](C(=O)O)[C@@H](O)[C@H](O)[C@H]2O[C@@H]2O[C@H](C(=O)O)[C@@H](O)[C@H](O)[C@H]2O)CC[C@]2(C)[C@H]3C(=O)C=C4[C@@H]5C[C@@](C)(C(=O)O)CC[C@]5(C)CC[C@@]4(C)[C@]3(C)CC[C@@H]12
Property name: cell viability
Result: 92.3
//
Compound: O=C1O[C@H]([C@@H](O)CO)C(O)=C1O [Vitamin C (ascorbate)]
Property name: cell viability
Result: 107
//
Compound: O=C(NCCCCCCNC(=O)ONC1=CCCCC1)ONC1=CCCCC1
Property name: cell viability
Result: 86
//
Compound: COC(=O)[C@]12CCC(C)(C)C[C@H]1[C@H]1C(=O)C=C3[C@@]4(C)C=C(C#N)C(=O)C(C)(C)[C@@H]4CC[C@@]3(C)[C@]1(C)CC2
Property name: cell viability
Result: 87.5
//
Compound: Nc1nc(Cl)nc2c1ncn2[C@H]1C[C@H](O)[C@@H](CO)O1
Property name: cell viability
Result: -0.282
//
Compound: NS(=O)(=O)c1ccc([N+](=O)[O-])cc1 [4-Nitrobenzenesulfonamide]
Property name: cell viability
Result: 107

====

test system: HL-60; test: cell viability (% survival relative to DMSO control, bortezomib = 0%); higher = less cytotoxic; details: 1000 nM; 72 h
Counter-ions that a name gives are not always drawn.
The label 1.0 is reserved for cell viability strictly under 90%; 0.0 covers values equal to or above it.

Molecule: O=C1c2cc([N+](=O)[O-])ccc2-n2c1nc1ccccc1c2=O
Class assignment: 1.0
//
Molecule: CCC(=O)N1CCN(c2ccc(-n3c(=O)ccc4cnc5ccc(-c6cnc7ccccc7c6)cc5c43)cc2C(F)(F)F)CC1
Class assignment: 1.0
//
Molecule: CC(C)(C#N)c1cc(Cn2cncn2)cc(C(C)(C)C#N)c1
Class assignment: 0.0
//
Molecule: Cc1cc(CS(=O)(=O)c2ccccc2)cc(OCc2ccc(CN3CCC[C@@H]3CO)cc2)c1 [PF-543 hydrochloride]
Class assignment: 1.0
//
Molecule: O=C(O)c1cc(N=Nc2ccc(S(=O)(=O)Nc3ccccn3)cc2)ccc1O
Class assignment: 0.0
//
Molecule: O=C(NNc1ccccc1)c1ccncc1
Class assignment: 0.0
//
Molecule: CCCCN1C[C@H](O)[C@@H](O)[C@H](O)[C@H]1CO
Class assignment: 0.0
//
Molecule: CCOP(=O)(OCC)C(=Cc1cc(C(C)(C)C)c(O)c(C(C)(C)C)c1)P(=O)(OCC)OCC
Class assignment: 1.0

====

Listed next: entries and their corresponding cell viability.
test system: KCL-22; assay: cell viability (% survival relative to DMSO control, bortezomib = 0%); higher = less cytotoxic; details: 1 nM; 72 h
Property name: cell viability (%)

Compound: NCCCC(N)(C(=O)O)C(F)F (stereo not given) [Difluoromethylornithine]
Result: 111
--
Compound: Cl.NC(CCC(=O)Nc1ccc([N+](=O)[O-])cc1)C(=O)O (stereo not given) [GPNA]
Result: 106
--
Compound: CCCCCCCCCCCC(=O)c1c(O)c(C(=O)CCCCCCCCCCC)c(O)c(C2CC(c3ccc(O)cc3)Oc3cc(O)ccc32)c1O (stereo not given)
Result: 107
--
Compound: CCOP(=O)(OCC)C(=Cc1cc(C(C)(C)C)c(O)c(C(C)(C)C)c1)P(=O)(OCC)OCC
Result: 98.7
--
Compound: CCN(CC)CCCC(C)Nc1ccnc2cc(Cl)ccc12 (stereo not given) [Chloroquine]
Result: 95.6
--
Compound: CC(C)c1cc2c(c(O)c1O)[C@@]1(C(=O)O)CCCC(C)(C)[C@@H]1CC2 [Carnosic acid]
Result: 101
--
Compound: O=C(NNc1ccccc1)c1ccncc1 [PluriSln 1]
Result: 89.9
--
Compound: O=C1c2cc([N+](=O)[O-])ccc2-n2c1nc1ccccc1c2=O [GNF-Pf-3777]
Result: 87.9
--
Compound: CC[C@@]1(O)C(=O)OCc2c1cc1n(c2=O)Cc2cc3c(CN(C)C)c(O)ccc3nc2-1 [Topotecan]
Result: 97.2
--
Compound: O[C@H]1[C@H]2[C@H](O)CCCN2C[C@H]1O [Swainsonine]
Result: 88.9

====

tested on: HEL; assay: cell viability (% survival relative to DMSO control, bortezomib = 0%); higher = less cytotoxic; details: 1000 nM; 72 h
Measured cell viability by item

Compound: CC(C)(C#N)c1cc(Cn2cncn2)cc(C(C)(C)C#N)c1
cell viability [%]: 97.1
--
Compound: CN(C)c1cc(NC(=O)CNC(C)(C)C)c(O)c2c1C[C@H]1C[C@H]3[C@H](N(C)C)C(=O)C(C(N)=O)C(=O)[C@@]3(O)C(=O)C1C2=O (some centres not stated)
cell viability [%]: 99.7
--
Compound: C=C(C=NNC(=N)N)NNC(=N)N
cell viability [%]: 93.2
--
Compound: CC[C@H](C)C(=O)O[C@H]1C[C@@H](C)C=C2C=C[C@H](C)[C@H](CC[C@@H]3C[C@@H](O)CC(=O)O3)[C@H]21
cell viability [%]: 92.6
--
Compound: N#CC(C#N)=NNc1ccc(OC(F)(F)F)cc1
cell viability [%]: 79.9
--
Compound: N#Cc1ccnc(N2C(=O)CC[C@H]2C(=O)N(c2cncc(F)c2)C(C(=O)NC2CC(F)(F)C2)c2ccccc2Cl)c1 (some centres not stated)
cell viability [%]: 105
--
Compound: Cc1c(-c2ccc(-c3ccccc3F)cc2)nc2ccc(F)cc2c1C(=O)O
cell viability [%]: 69
--
Compound: Oc1ccc(Nc2nc(-c3ccc(Cl)cc3)cs2)cc1
cell viability [%]: 95.5
--
Compound: Cl.NC(CCC(=O)Nc1ccc([N+](=O)[O-])cc1)C(=O)O (configuration not stated)
cell viability [%]: 91.5
--
Compound: COc1ccc(C(=O)Nc2c(Cl)cncc2Cl)cc1OC1CCCC1
cell viability [%]: 119
--
Compound: Cc1ccccc1C(C(=O)NC1CCCCC1)N(C(=O)Cn1ccnc1C)c1cccc(F)c1 (configuration not stated)
cell viability [%]: 99.4
--
Compound: O=C1O[C@H]([C@@H](O)CO)C(O)=C1O [Vitamin C (ascorbate)]
cell viability [%]: 107
